Numbers sourced from patent US20240376151A1.

Biological target: beta-catenin (Homo sapiens, UniProt P35222)
Construct: made in house; host or cells: E. coli BL21 (DE3) pLysS
Sequence (P35222 134-665): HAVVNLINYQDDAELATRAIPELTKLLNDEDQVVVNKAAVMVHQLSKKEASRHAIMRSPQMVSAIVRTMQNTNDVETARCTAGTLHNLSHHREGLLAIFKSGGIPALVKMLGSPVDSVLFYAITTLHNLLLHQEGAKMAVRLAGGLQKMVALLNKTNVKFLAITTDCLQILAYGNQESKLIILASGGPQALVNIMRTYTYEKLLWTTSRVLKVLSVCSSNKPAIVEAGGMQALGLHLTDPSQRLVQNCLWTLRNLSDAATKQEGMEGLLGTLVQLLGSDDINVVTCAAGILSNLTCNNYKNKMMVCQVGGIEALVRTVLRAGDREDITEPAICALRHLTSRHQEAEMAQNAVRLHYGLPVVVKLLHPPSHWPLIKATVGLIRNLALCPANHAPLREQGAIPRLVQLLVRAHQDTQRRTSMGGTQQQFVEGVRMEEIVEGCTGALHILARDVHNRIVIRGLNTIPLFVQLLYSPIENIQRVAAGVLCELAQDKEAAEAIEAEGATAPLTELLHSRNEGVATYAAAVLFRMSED
Assay: Phage Library Screening with NGS, beta-catenin
Assay type: binding
Details: beta-catenin target concentration 1000; first 1000 column
Ends that are not written are not given here.
Each entry below carries its reported Target Concentration 1000 (phage screen NGS readout).
test_readout: Target Concentration 1000 (phage screen NGS readout)

1. DPAVMACYEAAFQCAYW    12
2. DPAVFECSLAAIDCLQI    10
3. DPAILNCHMAAWDCNFY    37
4. DPAWSDCIWAAEHCQLI    109
5. DPADEDCILAAHVCRHF    25
6. DPARHECILAAHICEWE    1683
7. DPATWHCDWAAEHCELL    203
8. DPAVLECHIAAWECRMD    91
9. DPAHWHCEHAALLCASV    177
10. DPAVLECHIAAWECNHT    140
11. DPAMVTCYEAAYVCQYF    7
12. DPAFESCFLAAHICYWE    18
13. DPAEWYCEHAALVCTNH    148
14. DPADTECILAAHFCHYF    78
15. DPADDFCMWAAEHCELL    273
16. DPAADDCVLAAHVCAYF    407
17. DPADYECVIAAQVCQHF (not fully specified; cysteine pairing not given here)    19
18. DPAIADCDWAAEHCDLL    325
19. DPAVLQCYEAAFICEYM    4
20. DPAEVECMLAAHVCRAF    142
21. DPAILECHVAALDCQMW    98
22. DPAIMACYQAAFWCQYN    29
23. DPAIIRCYEAAFYCQNY    93
24. DPAILDCHIAAIQCFHD    1
25. DPAVDECIIAAHICHIW    31
26. DPAQWACEHAALLCSMD    326
27. DPAVHRCFWAAEHCDLI    95
28. DPAEWICEHAALLCSVL    33

* * *

molecular target: MDM2 (Homo sapiens); construct: made in house; assay: Naive Library Presenter Screening (phage, NGS), MDM2; format: binding; details: MDM2 clusters (C82, C85); target concentration 1000 nM, first column
Sequence (Q00987 25-109): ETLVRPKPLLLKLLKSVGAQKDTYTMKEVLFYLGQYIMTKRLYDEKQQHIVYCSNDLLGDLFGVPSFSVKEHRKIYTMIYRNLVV
Numbered stars: 1 amine (or outer) side, 2 acyl side, 3 side chain; on linkers, the order of the positions; unused ones are H or OH. Bridge positions count the residues as written; N and C are the ends. Ends that are not written are not given here. Phenylene(1,4-NHCOCH2)2 = O=C(C[*:1])Nc1ccc(NC(=O)C[*:2])cc1
Items are presented alongside their recorded interaction data at Target Concentration 1000.
test_readout: interaction data at Target Concentration 1000

1. DPAYTQCSDAAFMCWWW (linker 7-14 via Phenylene(1,4-NHCOCH2)2 (inferred))    65
2. DPAHYECTDAAFECYWF (linker 7-14 via Phenylene(1,4-NHCOCH2)2 (inferred))    57
3. DPALFSCDSAAFSCYWY (linker 7-14 via Phenylene(1,4-NHCOCH2)2 (inferred); not fully specified (C-terminus))    25
4. DPAQEDCHAAAFWCIWD (DPAQEDCHAAAFWCIWD-NH2; linker 7-14 via Phenylene(1,4-NHCOCH2)2 (inferred))    23
5. DPAVTECFQAAWRCMVM (linker 7-14 via Phenylene(1,4-NHCOCH2)2 (inferred); not fully specified (C-terminus))    269
6. DPASQDCFSAAWQCLQT (DPASQDCFSAAWQCLQT-NH2; linker 7-14 via Phenylene(1,4-NHCOCH2)2 (inferred))    94
7. DPAHQQCFMAAWRCVVH (linker 7-14 via Phenylene(1,4-NHCOCH2)2 (inferred))    356
8. DPAYEDCFFAAWNCMMV (linker 7-14 via Phenylene(1,4-NHCOCH2)2 (inferred))    23
9. DPAAQECFRAAWRCMQD (linker 7-14 via Phenylene(1,4-NHCOCH2)2 (inferred))    34
10. DPARRECMDAAFWCQWV (DPARRECMDAAFWCQWV-NH2; linker 7-14 via Phenylene(1,4-NHCOCH2)2 (inferred))    148
11. DPAAVQCNTAAFQCYWF (linker 7-14 via Phenylene(1,4-NHCOCH2)2 (inferred))    53
12. DPAHRQCFTAAWRCMMT (linker 7-14 via Phenylene(1,4-NHCOCH2)2 (inferred))    202
13. DPADIVCQDAAFQCFWW (linker 7-14 via Phenylene(1,4-NHCOCH2)2 (inferred))    46
14. DPAHNLCFDAAWWCHWQ (linker 7-14 via Phenylene(1,4-NHCOCH2)2 (inferred))    8
15. DPARQDCFSAAWMCMAI (DPARQDCFSAAWMCMAI-NH2; linker 7-14 via Phenylene(1,4-NHCOCH2)2 (inferred))    120
16. DPAETDCSQAAFWCYWQ (linker 7-14 via Phenylene(1,4-NHCOCH2)2 (inferred))    176
17. DPAQQDCFLAAWDCVWQ (DPAQQDCFLAAWDCVWQ-NH2; linker 7-14 via Phenylene(1,4-NHCOCH2)2 (inferred))    104
18. DPASAECFFAAWQCIAT (DPASAECFFAAWQCIAT-NH2; linker 7-14 via Phenylene(1,4-NHCOCH2)2 (inferred))    33
19. DPAERNCFTAAWQCMVW (linker 7-14 via Phenylene(1,4-NHCOCH2)2 (inferred))    135
20. DPAMSNCFMAAWECLIQ (linker 7-14 via Phenylene(1,4-NHCOCH2)2 (inferred); not fully specified (C-terminus))    185
21. DPARLRCQDAAFACMWY (DPARLRCQDAAFACMWY-NH2; linker 7-14 via Phenylene(1,4-NHCOCH2)2 (inferred))    32
22. DPAYSDCFQAAWTCMIH (linker 7-14 via Phenylene(1,4-NHCOCH2)2 (inferred))    110
23. DPARVHCNQAAFMCHWV (DPARVHCNQAAFMCHWV-NH2; linker 7-14 via Phenylene(1,4-NHCOCH2)2 (inferred))    14
24. DPAINTCQDAAFWCYWS (linker 7-14 via Phenylene(1,4-NHCOCH2)2 (inferred))    185
25. DPAQSDCFQAAWECVAN (DPAQSDCFQAAWECVAN-NH2; linker 7-14 via Phenylene(1,4-NHCOCH2)2 (inferred))    52
26. DPAQHHCQQAAFWCQWW (DPAQHHCQQAAFWCQWW-NH2; linker 7-14 via Phenylene(1,4-NHCOCH2)2 (inferred))    36
